Taken from paper PMC9360399.

- measured-target: DIAPH2 (Homo sapiens, UniProt O60879)
- Construct: UniProt O60879-2, aa 553–1096; 6-histidine tag (N); made in house; host or cells: ROSETTA-DE3 E. coli
- Sequence (O60879 553-1096 isoform O60879-2): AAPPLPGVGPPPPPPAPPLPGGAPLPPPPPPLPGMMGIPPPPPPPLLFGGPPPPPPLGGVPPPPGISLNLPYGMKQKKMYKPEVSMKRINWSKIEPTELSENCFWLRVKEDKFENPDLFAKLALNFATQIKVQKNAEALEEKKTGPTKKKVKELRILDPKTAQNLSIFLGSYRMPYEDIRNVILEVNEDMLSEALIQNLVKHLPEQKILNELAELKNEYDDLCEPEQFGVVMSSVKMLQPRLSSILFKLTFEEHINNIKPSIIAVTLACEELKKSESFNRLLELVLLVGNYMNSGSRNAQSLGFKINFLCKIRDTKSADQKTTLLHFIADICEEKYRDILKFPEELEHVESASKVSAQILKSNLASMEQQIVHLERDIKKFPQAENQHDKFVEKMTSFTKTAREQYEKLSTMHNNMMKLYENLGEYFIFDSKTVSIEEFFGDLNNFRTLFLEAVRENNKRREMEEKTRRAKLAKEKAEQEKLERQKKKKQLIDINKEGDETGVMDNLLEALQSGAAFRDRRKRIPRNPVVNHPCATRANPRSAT
- assay-details: pyrene-actin polymerization assay, DIAPH2-FFC
- Format: biochemical
readout-type: pIC50
Field pIC50 (float): negative decimal logarithm of the concentration in molar.

// known answers, use as guide
COc1ccc(N2C(=O)C(=Cc3cc(Br)co3)C(=O)NC2=S)cc1	5.48
O=C1NC(=S)N(c2ccc(Br)cc2)C(=O)C1=Cc1ccco1	5.52

Consider now this further compound.
q: Entry `O=C1NC(=S)N(c2cccc(Br)c2)C(=O)C1=Cc1ccc(Br)o1` has what pIC50?
a: 5.05

----------
Data export: IC50 values recorded with UniProt:Q27J81.
Sequence (Q27J81 469-1249): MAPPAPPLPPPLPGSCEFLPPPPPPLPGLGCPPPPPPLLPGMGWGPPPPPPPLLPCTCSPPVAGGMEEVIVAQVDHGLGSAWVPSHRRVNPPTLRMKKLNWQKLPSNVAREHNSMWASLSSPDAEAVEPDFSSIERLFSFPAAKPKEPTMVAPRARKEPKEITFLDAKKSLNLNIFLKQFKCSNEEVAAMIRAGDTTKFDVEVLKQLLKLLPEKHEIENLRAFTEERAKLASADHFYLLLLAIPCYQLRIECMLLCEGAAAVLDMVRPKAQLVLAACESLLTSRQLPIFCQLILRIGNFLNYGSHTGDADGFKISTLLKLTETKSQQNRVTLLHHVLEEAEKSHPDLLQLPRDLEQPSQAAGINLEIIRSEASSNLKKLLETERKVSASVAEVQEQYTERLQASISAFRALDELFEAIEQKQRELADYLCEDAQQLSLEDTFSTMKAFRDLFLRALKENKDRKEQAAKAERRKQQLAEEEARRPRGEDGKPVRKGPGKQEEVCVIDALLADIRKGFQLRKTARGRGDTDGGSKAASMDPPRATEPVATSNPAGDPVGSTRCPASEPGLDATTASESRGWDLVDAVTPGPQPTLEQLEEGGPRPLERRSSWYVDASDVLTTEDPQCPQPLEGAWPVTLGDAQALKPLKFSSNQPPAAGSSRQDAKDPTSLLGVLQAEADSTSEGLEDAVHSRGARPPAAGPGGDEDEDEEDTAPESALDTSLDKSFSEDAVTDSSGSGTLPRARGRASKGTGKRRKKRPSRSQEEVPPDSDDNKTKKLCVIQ

O=C1NC(=S)N(c2cccc(Br)c2)C(=O)C1=Cc1cccs1	> 40 µM
Cc1ccc(C=C2C(=O)NC(=S)N(c3cccc(Br)c3)C2=O)o1	> 40 µM

q: Entry `O=C1NC(=O)N(c2cccc(Br)c2)C(=O)C1=Cc1ccco1` has what IC50?
a: > 40 µM
